Can you tell me peptide exchange yield for the items I'm about to list?
Biological target: T1, HLA-A*01:01 (human)
T1 construct: Peptide-receptive MHC class I monomer after UV cleavage of a UV-sensitive ligand; captured on streptavidin plates, detected with anti-b2m
Assay: UV-ligand exchange, anti-b2m ELISA; peptide exchange yield grade

- BINDER: "QVDGSLLVI"
  peptide exchange yield: "20 to 50%"
- BINDER: "RSIDVTGQGF"
  peptide exchange yield: "20 to 50%"
- BINDER: "YIDDVTLI"
  peptide exchange yield: "20 to 50%"
- BINDER: "FTDLITDESINY"
  peptide exchange yield: "≥ 75%"
- BINDER: "WSDWSNPAY"
  peptide exchange yield: "≥ 75%"

Quick batch: peptide exchange yield for everything below.
1. PSDLSVFTSY
2. ISDGMDSSAHY
3. VTDVTEEHY

output:
1. ≥ 75%
2. ≥ 75%
3. ≥ 75%
